Data provenance: the kinase profiling compilation of Christmann-Franck et al. (2016)

target: HIPK1 (human)
quantity_name: pIC50
Remember the convention: pIC50 equals -log10 of concentration in molar.

*Q* Query (molecule): CN(C)C/C=C/C(=O)Nc1cccc(C(=O)Nc2ccc(Nc3nccc(-c4cccnc4)n3)cc2)c1 ; field requested: pIC50
*A* 5.30

====

target: ACVR2A (human); assay: KINOMEscan competition binding; settings: compound 1.0 µM
quantity_name: kinase still bound, per cent of control (%)
Use % as the unit, but write only the number.

*Q* Provide the documented kinase still bound, per cent of control with ACVR2A (human) as the system for CN(C)C/C=C/C(=O)Nc1cccc(C(=O)Nc2ccc(Nc3nccc(/C(C#N)=C4\Nc5ccccc5S4)n3)cc2)c1
*A* 79

*Q* Do the same for Cc1cc(NC(=O)c2cccc(NC(=O)/C=C/CN(C)C)c2)ccc1Nc1nccc(-c2cccnc2)n1 please
*A* 100

*Q* Request: CN(C)C/C=C/C(=O)Nc1cccc(C(=O)Nc2ccc(Nc3nccc(-c4c(-c5ccccc5)nn5ccccc45)n3)cc2)c1
*A* 5.1

*Q* Queued: CN(C)C/C=C/C(=O)Nc1cccc(C(=O)Nc2ccc(Nc3nccc(-c4cccnc4)n3)cc2)c1
*A* 43

====

biological target: FLT1 (human); experiment: KINOMEscan competition binding; conditions: compound 1.0 µM
Give measured kinase still bound, per cent of control for each item. Keep answers brief.
Enter your answer as a number in %; do not include the unit.

*Q* Bench note: what kinase still bound, per cent of control did CN(C)C/C=C/C(=O)Nc1cccc(C(=O)Nc2ccc(Nc3nccc(/C(C#N)=C4\Nc5ccccc5S4)n3)cc2)c1 show?
*A* 32

*Q* Subsequent entry: Cc1cc(NC(=O)c2cccc(NC(=O)/C=C/CN(C)C)c2)ccc1Nc1nccc(-c2cccnc2)n1
*A* 100

*Q* Input CN(C)C/C=C/C(=O)Nc1cccc(C(=O)Nc2ccc(Nc3nccc(-c4c(-c5ccccc5)nn5ccccc45)n3)cc2)c1
*A* 9.3

*Q* Also CN(C)C/C=C/C(=O)Nc1cccc(C(=O)Nc2ccc(Nc3nccc(-c4cccnc4)n3)cc2)c1 , if possible.
*A* 75

====

target: AURKA (human); assay: KINOMEscan competition binding; settings: compound 1.0 µM
quantity_name: kinase still bound, per cent of control (%)
Only the number, expressed in %, is required.

*Q* Suppose we examine the compound CN(C)C/C=C/C(=O)Nc1cccc(C(=O)Nc2ccc(Nc3nccc(-c4c(-c5ccccc5)nn5ccccc45)n3)cc2)c1 ; what kinase still bound, per cent of control value has been reported?
*A* 28

*Q* Entry to check: Cc1cc(NC(=O)c2cccc(NC(=O)/C=C/CN(C)C)c2)ccc1Nc1nccc(-c2cccnc2)n1
*A* 100

*Q* And then CN(C)C/C=C/C(=O)Nc1cccc(C(=O)Nc2ccc(Nc3nccc(-c4cccnc4)n3)cc2)c1 , what is it?
*A* 67

*Q* # repeat for CN(C)C/C=C/C(=O)Nc1cccc(C(=O)Nc2ccc(Nc3nccc(/C(C#N)=C4\Nc5ccccc5S4)n3)cc2)c1
*A* 100

====

For each entry below, report its kinase still bound, per cent of control value.
target: LTK (human); assay: KINOMEscan competition binding; conditions: compound 1.0 µM
The reply should contain only the number, in %.

*Q* # kinase still bound, per cent of control lookup, item CN(C)C/C=C/C(=O)Nc1cccc(C(=O)Nc2ccc(Nc3nccc(-c4cccnc4)n3)cc2)c1
*A* 100

*Q* Field entry: Cc1cc(NC(=O)c2cccc(NC(=O)/C=C/CN(C)C)c2)ccc1Nc1nccc(-c2cccnc2)n1
*A* 100

*Q* Request: CN(C)C/C=C/C(=O)Nc1cccc(C(=O)Nc2ccc(Nc3nccc(/C(C#N)=C4\Nc5ccccc5S4)n3)cc2)c1
*A* 100

*Q* Repeat for the following compound: CN(C)C/C=C/C(=O)Nc1cccc(C(=O)Nc2ccc(Nc3nccc(-c4c(-c5ccccc5)nn5ccccc45)n3)cc2)c1
*A* 83

====

biological target: UniProt:Q06187; test: KINOMEscan competition binding; settings: compound 1.0 µM
Sequence (Q06187 whole entry, looked up): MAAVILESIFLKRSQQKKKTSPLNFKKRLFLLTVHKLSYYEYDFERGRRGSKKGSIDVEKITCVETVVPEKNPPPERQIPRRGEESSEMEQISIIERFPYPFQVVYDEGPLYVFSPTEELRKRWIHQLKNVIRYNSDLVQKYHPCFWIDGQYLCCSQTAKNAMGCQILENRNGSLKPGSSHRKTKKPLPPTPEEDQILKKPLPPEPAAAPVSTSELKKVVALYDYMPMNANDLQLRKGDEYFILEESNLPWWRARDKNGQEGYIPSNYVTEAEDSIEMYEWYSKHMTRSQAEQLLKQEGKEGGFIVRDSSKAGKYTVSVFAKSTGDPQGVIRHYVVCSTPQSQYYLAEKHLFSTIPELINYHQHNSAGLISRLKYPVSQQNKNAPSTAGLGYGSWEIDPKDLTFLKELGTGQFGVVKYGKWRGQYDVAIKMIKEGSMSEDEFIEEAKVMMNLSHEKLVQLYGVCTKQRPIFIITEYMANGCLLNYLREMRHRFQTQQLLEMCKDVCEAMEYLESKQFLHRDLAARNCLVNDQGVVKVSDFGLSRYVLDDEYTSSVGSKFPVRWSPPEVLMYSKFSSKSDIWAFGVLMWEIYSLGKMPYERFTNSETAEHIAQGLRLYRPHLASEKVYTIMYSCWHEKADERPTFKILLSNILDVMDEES
Task for the reader: assign each of the following compounds its reported kinase still bound, per cent of control.
Just the number please, in %, no unit attached.

*Q* Value lookup for kinase still bound, per cent of control; key = CN(C)C/C=C/C(=O)Nc1cccc(C(=O)Nc2ccc(Nc3nccc(-c4c(-c5ccccc5)nn5ccccc45)n3)cc2)c1
*A* 100

*Q* How about Cc1cc(NC(=O)c2cccc(NC(=O)/C=C/CN(C)C)c2)ccc1Nc1nccc(-c2cccnc2)n1 ?
*A* 100

*Q* Now the compound CN(C)C/C=C/C(=O)Nc1cccc(C(=O)Nc2ccc(Nc3nccc(/C(C#N)=C4\Nc5ccccc5S4)n3)cc2)c1
*A* 76

*Q* // query: CN(C)C/C=C/C(=O)Nc1cccc(C(=O)Nc2ccc(Nc3nccc(-c4cccnc4)n3)cc2)c1
*A* 76

====

target: CLK3 (human) (UniProt P49761); test: KINOMEscan competition binding; conditions: compound 1.0 µM
Sequence (P49761 whole entry, looked up): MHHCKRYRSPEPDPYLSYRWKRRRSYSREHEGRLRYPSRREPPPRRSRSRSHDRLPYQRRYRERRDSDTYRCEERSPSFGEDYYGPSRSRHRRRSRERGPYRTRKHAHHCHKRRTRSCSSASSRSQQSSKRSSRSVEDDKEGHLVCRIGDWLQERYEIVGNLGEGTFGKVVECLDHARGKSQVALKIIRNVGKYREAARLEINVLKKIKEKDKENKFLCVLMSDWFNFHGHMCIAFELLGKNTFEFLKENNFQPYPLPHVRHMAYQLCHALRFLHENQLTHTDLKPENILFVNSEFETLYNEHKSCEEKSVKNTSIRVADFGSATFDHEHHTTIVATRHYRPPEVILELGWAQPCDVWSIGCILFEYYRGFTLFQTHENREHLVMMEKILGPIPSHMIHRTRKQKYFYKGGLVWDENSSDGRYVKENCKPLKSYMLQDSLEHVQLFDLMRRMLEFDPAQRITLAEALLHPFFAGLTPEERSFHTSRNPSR
quantity_name: kinase still bound, per cent of control (%)
Provide the reading as a plain figure in %.

*Q* What measured kinase still bound, per cent of control goes with CN(C)C/C=C/C(=O)Nc1cccc(C(=O)Nc2ccc(Nc3nccc(/C(C#N)=C4\Nc5ccccc5S4)n3)cc2)c1 ?
*A* 100

*Q* Also need CN(C)C/C=C/C(=O)Nc1cccc(C(=O)Nc2ccc(Nc3nccc(-c4c(-c5ccccc5)nn5ccccc45)n3)cc2)c1 , thanks.
*A* 100

*Q* Try the compound Cc1cc(NC(=O)c2cccc(NC(=O)/C=C/CN(C)C)c2)ccc1Nc1nccc(-c2cccnc2)n1
*A* 100

*Q* Please answer likewise for CN(C)C/C=C/C(=O)Nc1cccc(C(=O)Nc2ccc(Nc3nccc(-c4cccnc4)n3)cc2)c1
*A* 84

====

target: TEK (human); experiment: KINOMEscan competition binding; conditions: compound 1.0 µM
quantity_name: kinase still bound, per cent of control (%)
Kindly answer with a numeric value in %, unit omitted.

*Q* # returns recorded kinase still bound, per cent of control (system: TEK (human)) for CN(C)C/C=C/C(=O)Nc1cccc(C(=O)Nc2ccc(Nc3nccc(-c4cccnc4)n3)cc2)c1
*A* 98

*Q* Also CN(C)C/C=C/C(=O)Nc1cccc(C(=O)Nc2ccc(Nc3nccc(/C(C#N)=C4\Nc5ccccc5S4)n3)cc2)c1 ?
*A* 100

*Q* Moving on to CN(C)C/C=C/C(=O)Nc1cccc(C(=O)Nc2ccc(Nc3nccc(-c4c(-c5ccccc5)nn5ccccc45)n3)cc2)c1
*A* 67

*Q* Moving on to Cc1cc(NC(=O)c2cccc(NC(=O)/C=C/CN(C)C)c2)ccc1Nc1nccc(-c2cccnc2)n1
*A* 76

====

molecular target: AURKB (human); experiment: KINOMEscan competition binding; details: compound 1.0 µM
quantity_name: kinase still bound, per cent of control (%)
Numeric only. Scale: %

*Q* Request the reported kinase still bound, per cent of control associated with CN(C)C/C=C/C(=O)Nc1cccc(C(=O)Nc2ccc(Nc3nccc(/C(C#N)=C4\Nc5ccccc5S4)n3)cc2)c1
*A* 83

*Q* Entry CN(C)C/C=C/C(=O)Nc1cccc(C(=O)Nc2ccc(Nc3nccc(-c4cccnc4)n3)cc2)c1 please
*A* 63

*Q* Please answer likewise for Cc1cc(NC(=O)c2cccc(NC(=O)/C=C/CN(C)C)c2)ccc1Nc1nccc(-c2cccnc2)n1
*A* 82

*Q* And the next one, CN(C)C/C=C/C(=O)Nc1cccc(C(=O)Nc2ccc(Nc3nccc(-c4c(-c5ccccc5)nn5ccccc45)n3)cc2)c1 ?
*A* 85

====

biological target: FER (human) (UniProt P16591); test: KINOMEscan competition binding; conditions: compound 1.0 µM
Sequence (P16591 whole entry, looked up): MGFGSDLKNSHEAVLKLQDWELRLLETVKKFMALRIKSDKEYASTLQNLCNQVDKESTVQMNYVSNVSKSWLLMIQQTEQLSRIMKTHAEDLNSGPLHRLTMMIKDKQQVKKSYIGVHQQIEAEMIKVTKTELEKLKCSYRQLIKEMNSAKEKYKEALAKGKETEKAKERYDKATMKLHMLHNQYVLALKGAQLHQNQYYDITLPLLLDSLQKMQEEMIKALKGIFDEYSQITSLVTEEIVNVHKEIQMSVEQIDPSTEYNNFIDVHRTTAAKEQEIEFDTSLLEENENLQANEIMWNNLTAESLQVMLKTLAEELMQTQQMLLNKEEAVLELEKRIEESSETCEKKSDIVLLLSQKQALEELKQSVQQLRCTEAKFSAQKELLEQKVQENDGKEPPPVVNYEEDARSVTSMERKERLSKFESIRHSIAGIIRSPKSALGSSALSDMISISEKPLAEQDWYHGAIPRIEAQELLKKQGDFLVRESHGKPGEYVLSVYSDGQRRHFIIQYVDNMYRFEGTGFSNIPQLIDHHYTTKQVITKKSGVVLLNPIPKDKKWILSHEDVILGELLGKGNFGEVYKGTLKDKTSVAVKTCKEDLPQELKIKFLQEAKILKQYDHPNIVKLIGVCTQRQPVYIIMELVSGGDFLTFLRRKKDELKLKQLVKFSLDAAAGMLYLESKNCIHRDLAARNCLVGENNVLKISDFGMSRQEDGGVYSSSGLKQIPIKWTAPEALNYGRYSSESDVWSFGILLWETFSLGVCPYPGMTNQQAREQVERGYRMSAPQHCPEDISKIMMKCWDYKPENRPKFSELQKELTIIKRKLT
Would you mind telling me the reported kinase still bound, per cent of control of each entry?

*Q* Would you mind telling me what kinase still bound, per cent of control value was observed for CN(C)C/C=C/C(=O)Nc1cccc(C(=O)Nc2ccc(Nc3nccc(-c4c(-c5ccccc5)nn5ccccc45)n3)cc2)c1 ?
*A* 87%

*Q* // repeat for CN(C)C/C=C/C(=O)Nc1cccc(C(=O)Nc2ccc(Nc3nccc(-c4cccnc4)n3)cc2)c1 and report
*A* 100%

*Q* Repeat for the following molecule: CN(C)C/C=C/C(=O)Nc1cccc(C(=O)Nc2ccc(Nc3nccc(/C(C#N)=C4\Nc5ccccc5S4)n3)cc2)c1
*A* 82%

*Q* How about this molecule: Cc1cc(NC(=O)c2cccc(NC(=O)/C=C/CN(C)C)c2)ccc1Nc1nccc(-c2cccnc2)n1
*A* 100%

====

Kindly state kinase still bound, per cent of control for each of the entries shown.
system: EGFR (human), P00533 [P753S; 747-752 del]; assay: KINOMEscan competition binding; settings: compound 1.0 µM

*Q* Fill in: kinase still bound, per cent of control of CN(C)C/C=C/C(=O)Nc1cccc(C(=O)Nc2ccc(Nc3nccc(/C(C#N)=C4\Nc5ccccc5S4)n3)cc2)c1 is ___
*A* 100%

*Q* Subsequent entry: Cc1cc(NC(=O)c2cccc(NC(=O)/C=C/CN(C)C)c2)ccc1Nc1nccc(-c2cccnc2)n1
*A* 81%

*Q* Repeat with CN(C)C/C=C/C(=O)Nc1cccc(C(=O)Nc2ccc(Nc3nccc(-c4cccnc4)n3)cc2)c1
*A* 99%

*Q* What do you have for CN(C)C/C=C/C(=O)Nc1cccc(C(=O)Nc2ccc(Nc3nccc(-c4c(-c5ccccc5)nn5ccccc45)n3)cc2)c1 ?
*A* 7%
